- Tested on: snout beetles
- measurement protocol: Field test of individual odorants in yellow Delta traps
- Type: in vivo, Eremnus setulosus and/or Phlyctinus calosus
- run parameters: replication 3; traps at ground level against apple tree trunks, collected after one week
readout label: Numbers of snout beetles caught in yellow Delta traps, Rep. 3

Ask: Can you share its Numbers of snout beetles caught in yellow Delta traps, Rep. 3? I mean this compound: `COc1ccccc1`
Reply: 3

Ask: Can you share its Numbers of snout beetles caught in yellow Delta traps, Rep. 3? I mean this compound: `COc1cccc(C(C)=O)c1`
Reply: 6

Ask: Can you share its Numbers of snout beetles caught in yellow Delta traps, Rep. 3? I mean this compound: COC1=C(C)OC(C)C1=O (centres unmarked)
Reply: 3

Ask: Can you share its Numbers of snout beetles caught in yellow Delta traps, Rep. 3? I mean this compound: `CC(=O)CCC(C)C`
Reply: 1

Ask: Can you share its Numbers of snout beetles caught in yellow Delta traps, Rep. 3? I mean this compound: `O=C(O)C1CC1`
Reply: 5

The reported measurements were obtained from patent US9314019B2.
